test_system: 5-Lipoxygenase (Homo sapiens, UniProt P09917)
Construct: Human heparinized whole blood was preincubated with test compounds or vehicle for 15 min; endogenous in cells
Sequence (P09917 whole entry): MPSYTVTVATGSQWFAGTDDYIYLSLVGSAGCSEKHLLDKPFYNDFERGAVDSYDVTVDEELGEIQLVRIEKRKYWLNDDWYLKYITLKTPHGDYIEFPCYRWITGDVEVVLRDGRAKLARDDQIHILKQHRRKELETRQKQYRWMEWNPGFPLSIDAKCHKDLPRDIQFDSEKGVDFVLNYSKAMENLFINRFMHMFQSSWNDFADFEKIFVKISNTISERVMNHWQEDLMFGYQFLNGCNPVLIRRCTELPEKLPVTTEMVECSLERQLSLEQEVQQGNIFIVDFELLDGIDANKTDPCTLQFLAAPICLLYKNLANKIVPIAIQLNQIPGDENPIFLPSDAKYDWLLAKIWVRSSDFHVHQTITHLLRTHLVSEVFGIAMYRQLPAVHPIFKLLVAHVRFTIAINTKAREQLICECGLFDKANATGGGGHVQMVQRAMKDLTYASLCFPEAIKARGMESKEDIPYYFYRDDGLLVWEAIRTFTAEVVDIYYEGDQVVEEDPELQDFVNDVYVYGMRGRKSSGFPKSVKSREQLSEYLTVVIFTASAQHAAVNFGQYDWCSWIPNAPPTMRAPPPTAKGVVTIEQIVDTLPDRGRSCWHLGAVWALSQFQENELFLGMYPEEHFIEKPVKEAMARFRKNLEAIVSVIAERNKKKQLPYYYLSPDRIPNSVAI
experiment_notes: Calcium ionophore-induced LTB4 biosynthesis in human whole blood (5-lipoxygenase inhibition)
stated_conditions: human heparinized whole blood; 15 min preincubation at 37° C; A23187 8.3 μM, 30 min; LTB4 by radioimmunoassay
readout: IC50 (nM)
Quick note: give the figure in nM, leave out the unit.

>  <molecule>
CCCCCC=NOCCN(O)C(N)=O [Example 2, hexyloximyl-O-2-ethyl-N-hydroxyurea]

>  <IC50 [nM]>
100

$$$$
>  <molecule>
NC(=O)N(O)CCON=Cc1cccc(Oc2ccc(F)cc2)c1

>  <IC50 [nM]>
100

$$$$
>  <molecule>
CC(CN(O)C(N)=O)O/N=C/c1ccc(Oc2ccc(F)cc2)o1 (stereo not shown)

>  <IC50 [nM]>
140

$$$$
>  <molecule>
NC(=O)N(O)CCON=Cc1cccn1Cc1ccc(Cl)cc1

>  <IC50 [nM]>
160

$$$$
>  <molecule>
NC(=O)N(O)CCON=Cc1ccc(Sc2ccccc2)o1

>  <IC50 [nM]>
100

$$$$
>  <molecule>
CC(=NOCCN(O)C(N)=O)c1cc2ccccc2s1

>  <IC50 [nM]>
100

$$$$

Moving on to the next molecule.
Prompt: Value lookup for IC50; key = CC(CN(O)C(N)=O)O/N=C\c1ccc(Oc2ccc(F)cc2)o1 (stereo not shown)
Completion: 100
